- target-system: L858R/T790M/C797S triple mutant EGFR (Homo sapiens, UniProt P00533, C797S/L858R/T790M)
- Construct: purchased Signalchem
- method-notes: Enzymology experiment in vitro (HTRF/FRET kinase activity), L858R/T790M/C797S triple mutant EGFR
- Assay type: biochemical
- settings: HTRF KinEASE-TK, read-out: EGFR (L858R/T790M/C797S) IC50
Counter-ions that a name gives are not always drawn.
quantity-measured: pIC50
FYI, pIC50 means -log10 of a concentration in mol per litre.

// fetch pIC50; item: COc1cc(N2CCOCC2)c(-c2cnn(C)c2)cc1Nc1ncc(C(F)(F)F)c(Nc2ccc3nccnc3c2P(C)(C)=O)n1 ; system: L858R/T790M/C797S triple mutant EGFR (Homo sapiens, UniProt P00533, C797S/L858R/T790M)
9.72

Report pIC50 under test system L858R/T790M/C797S triple mutant EGFR (Homo sapiens, UniProt P00533, C797S/L858R/T790M) for COc1cc(N2CCC3(CCN(CCF)CC3)CC2)c(-c2cnn(C)c2)cc1Nc1ncc(Br)c(Nc2ccccc2P(C)(C)=O)n1 .
9.54

Provide pIC50, tested on L858R/T790M/C797S triple mutant EGFR (Homo sapiens, UniProt P00533, C797S/L858R/T790M), for COc1cc(N2CCC3(CC2)CN(C)C3)c(-c2cnn(C)c2)cc1Nc1ncc(Br)c(Nc2ccc3nccnc3c2P(C)(C)=O)n1 [Compound 16, formate] .
10.30

Lab note: L858R/T790M/C797S triple mutant EGFR (Homo sapiens, UniProt P00533, C797S/L858R/T790M) assay, enter pIC50 for COc1cc(N2CCN(C(=O)C3CC3)CC2)c(-c2cnn(C)c2)cc1Nc1ncc(Br)c(Nc2ccc3nccnc3c2P(C)(C)=O)n1 here
8.88

# return pIC50 for COc1cc(N2CCC3(CCN(CC4CC4)CC3)CC2)c(-c2cnn(C)c2)cc1Nc1ncc(Br)c(Nc2ccc3nccnc3c2P(C)(C)=O)n1 , test system: L858R/T790M/C797S triple mutant EGFR (Homo sapiens, UniProt P00533, C797S/L858R/T790M)
9.10

Report its pIC50 with L858R/T790M/C797S triple mutant EGFR (Homo sapiens, UniProt P00533, C797S/L858R/T790M) as the test system: COc1cc(N2CCC3(CC2)CN(C)CCO3)c(-c2cnn(C)c2)cc1Nc1ncc(Br)c(Nc2ccc3nccnc3c2P(C)(C)=O)n1
9.18

====

- target-system: Ba/F3 L858R/T790M/C797S EGFR triple mutant cell line (Homo sapiens, UniProt P00533, T790M/C797S/L858R, cells depend on it)
- Sequence (P00533 whole entry T790M/C797S/L858R): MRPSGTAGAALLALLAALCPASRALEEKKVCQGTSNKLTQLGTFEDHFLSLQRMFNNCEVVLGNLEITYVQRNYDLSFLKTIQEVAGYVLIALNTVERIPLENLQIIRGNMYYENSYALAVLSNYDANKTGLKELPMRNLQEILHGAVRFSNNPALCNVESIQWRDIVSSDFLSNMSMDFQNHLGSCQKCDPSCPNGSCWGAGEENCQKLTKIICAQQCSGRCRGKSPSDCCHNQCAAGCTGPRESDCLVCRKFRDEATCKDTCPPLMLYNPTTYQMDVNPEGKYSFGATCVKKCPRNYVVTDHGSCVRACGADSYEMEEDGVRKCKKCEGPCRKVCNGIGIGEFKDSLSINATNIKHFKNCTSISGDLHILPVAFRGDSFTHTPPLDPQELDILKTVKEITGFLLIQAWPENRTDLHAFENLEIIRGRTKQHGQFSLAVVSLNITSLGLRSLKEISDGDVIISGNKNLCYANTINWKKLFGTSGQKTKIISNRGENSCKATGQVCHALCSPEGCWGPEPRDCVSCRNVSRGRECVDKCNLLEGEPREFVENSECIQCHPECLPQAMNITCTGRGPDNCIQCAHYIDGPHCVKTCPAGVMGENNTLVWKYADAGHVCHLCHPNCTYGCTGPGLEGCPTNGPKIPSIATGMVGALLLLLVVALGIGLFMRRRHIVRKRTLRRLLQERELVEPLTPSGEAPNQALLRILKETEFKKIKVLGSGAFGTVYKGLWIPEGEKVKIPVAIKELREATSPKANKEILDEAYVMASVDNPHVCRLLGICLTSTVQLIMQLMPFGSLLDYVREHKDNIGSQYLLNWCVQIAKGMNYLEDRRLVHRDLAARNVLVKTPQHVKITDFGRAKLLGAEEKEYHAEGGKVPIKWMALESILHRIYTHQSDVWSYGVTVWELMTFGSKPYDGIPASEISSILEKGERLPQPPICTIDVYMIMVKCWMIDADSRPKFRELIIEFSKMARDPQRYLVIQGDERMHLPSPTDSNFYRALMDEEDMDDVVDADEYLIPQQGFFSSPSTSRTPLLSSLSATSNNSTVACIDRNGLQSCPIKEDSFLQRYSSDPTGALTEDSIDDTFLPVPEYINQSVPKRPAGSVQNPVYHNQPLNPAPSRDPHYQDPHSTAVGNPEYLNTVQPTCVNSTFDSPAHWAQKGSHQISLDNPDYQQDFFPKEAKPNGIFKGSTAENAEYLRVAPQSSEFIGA
- method-notes: Cell proliferation inhibition experiment (CellTiter-Glo), Ba/F3 L858R/T790M/C797S
- Assay type: cell-based
- settings: 72 hours, Cell Titer-Glo, read-out: Ba/F3 (L858R/T790M/C797S) IC50
// boundary case: GI50 equal to 100 nM maps to F; strictly smaller maps to T

Take the compound COc1cc(N2CCC(C)(OC)CC2)c(-c2cnn(C)c2)cc1Nc1ncc(Cl)c(Nc2ccc3nccnc3c2P(C)(C)=O)n1 [compound 239] and say whether its GI50 is less than 100 nM.
T

Is it true that GI50 reported for COc1cc(N2CCN(C3CC3)CC2)c(-c2cnn(C)c2)cc1Nc1ncc(Br)c(Nc2ccc3nccnc3c2P(C)(C)=O)n1 [compound 102] is less than 100 nM?
T

Find out if reported GI50 for COc1cc(N2CCN(C(N)=O)CC2)c(-c2cnn(C)c2)cc1Nc1ncc(Br)c(Nc2ccc3nccnc3c2P(C)(C)=O)n1 [compound 112] is less than 100 nM
F

Input COc1cc(N2CCOC(C)(C)C2)c(-c2cnn(C)c2)cc1Nc1ncc(Br)c(Nc2ccc3nccnc3c2P(C)(C)=O)n1 [compound 120] ; condition: GI50 strictly below 100 nM. Does it hold?
T

In the record for COc1cc(N2CCOCC2)c(-c2ccsc2)cc1Nc1ncc(Br)c(Nc2ccc3nccnc3c2P(C)(C)=O)n1 [compound 86] , is GI50 less than 100 nM?
F

Could you please tell me whether GI50 recorded for COc1cc(N2CCO[C@@H](C)C2)c(-c2cnn(C)c2)cc1Nc1ncc(Br)c(Nc2ccc3nccnc3c2P(C)(C)=O)n1 [compound 170] is less than 100 nM?
T

Is the reported GI50 for COc1cc(N2CCOCC2)c(-c2ccnn2C)cc1Nc1ncc(Br)c(Nc2ccc3nccnc3c2P(C)(C)=O)n1 [compound 90] strictly below 100 nM?
F

All figures here come from patent US20230219986A1.
